What LD50 at 96 h was measured for each of the following?
# Method Summary: Acute toxicity on mice (oral)
# Assay type: in vivo
# Condition Label: mouse, in vivo, po, Table II, 4 days observation
Use mg/kg as the unit, but write only the number.

[in] For the compound CC(C)N(CCCO/N=C1\CCCC\C1=C/c1ccc(Cl)cc1)C(C)C , what LD50 at 96 h is on record?
[out] 1100

[in] Then this compound: CC(C)N(CCON=C1CCCCCC1=Cc1ccccc1)C(C)C [Reference compound G, reference compound]
[out] 325

[in] Then this compound: CN(C)CCCON=C1CCCCC1Cc1ccccc1 (stereo not drawn) [Reference compound A, reference compound]
[out] 250

[in] Then this compound: CC(C)N(CCO/N=C1\CCCCCC\C1=C/c1ccccc1)C(C)C
[out] 400

[in] Then this compound: COc1ccc(C=C2CCCCC2=NOCCCN(C)C)cc1 [Reference compound F, reference compound]
[out] 1750

---

# Test system: writhing reactions
# Method Summary: Analgesic effect on mice (acetic acid writhing)
# Assay type: in vivo
# Condition Label: Table II; LD50/ED50, mice
What Therapeutical index (analgesic) was measured for each of the following?
Please give only the number in your answer, with no unit.

[in] For the molecule Clc1cccc(/C=C2\CCCCC\C2=N/OCCCN2CCN(Cc3ccccc3)CC2)c1 [Example 2] , what Therapeutical index (analgesic) is on record?
[out] 17.2

[in] Then this molecule: CC(C)N(CCCO/N=C1\CCCC\C1=C/c1ccc(Cl)cc1)C(C)C [Example 3]
[out] 24.2

[in] Then this molecule: CC(C)N(CCO/N=C1\CCCCCC\C1=C/c1ccccc1)C(C)C [Example 10]
[out] 6.9

[in] Then this molecule: CN(C)CCCO/N=C1\CCCCCC\C1=C/c1ccccc1 [Example 11]
[out] 6.7

---

# Method Summary: Acute toxicity on mice (oral)
# Format: in vivo
# Condition Label: mouse, in vivo, Table I, 4 days observation
Measured Attribute: LD50 at 96 h

[in] For the compound CCCC(C)(COC(N)=O)COC(N)=O [Meprobamate, reference compound] , what LD50 at 96 h is on record?
[out] 1100 mg/kg

---

# Method Summary: Acute toxicity on mice (oral)
# Type: in vivo
# Condition Label: mouse, in vivo, po, Table I, 4 days observation
What LD50 at 96 h was measured for each of the following?
Use mg/kg as the unit, but write only the number.

[in] For the molecule CC(CO/N=C1\CCCCC\C1=C/c1ccccc1)N(C)C (centres unmarked) [Example 8] , what LD50 at 96 h is on record?
[out] 800

[in] Then this molecule: C(=C1/CCCC/C1=N\OCCCN1CCN(c2ccccc2)CC1)/c1ccccc1 [Example 1]
[out] 2000

[in] Then this molecule: CC(CO/N=C1\CCCC\C1=C/c1ccccc1)N(C)C (centres unmarked) [Example 9]
[out] 600

[in] Then this molecule: CC(C)N(CCO/N=C1\CCCCC\C1=C\c1ccccc1)C(C)C [Example 5]
[out] 800

[in] Then this molecule: CN(C)CCO/N=C1\CCCC\C1=C/c1ccc(Cl)cc1 [Example 13]
[out] 2000
